B1: TRIM14 (parent)
chain: YARTPTLDPDTMHARLRLSADRLT

# Variants of: B1
# assay.notes: protein stability index of a GFP-peptide fusion (GPS, HEK-293T) (PSI 1-6); higher = more stable;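 also: lentivirally expressed fusions sorted by FACS into six bins by GFP to DsRed ratio, PSI derived from sequencing read proportions per bin multiplied by bin number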
# condition.parameters: c terminus: a fixed tail appended
# Lookup of reported protein stability index keyed by entry

# variant.name, protein stability index
records = [
    ("A20E", 3.03),
    ("D10W", 3.31),
    ("P9M", 3.07),
    ("D10I", 2),
    ("D8R", 1.98),
    ("Y1G", 4),
    ("L16V", 2.49),
    ("L16E", 3.5),
    ("M12F", 2.01),
    ("T11S", 2.66),
    ("P5S", 2.16),
    ("H13W", 2.51),
    ("T6M", 2.71),
    ("R15D", 2.8),
    ("R17K", 2.58),
    ("R15G", 3.36),
    ("S19Y", 1.89),
    ("H13S", 3.17),
    ("D21C", 2.77),
    ("A20M", 2.35),
    ("A2H", 2.46),
    ("D8Q", 2.52),
    ("Y1Q", 4.33),
    ("S19P", 3.06),
    ("P9D", 2.98),
    ("P9N", 3.11),
    ("R17Q", 2.56),
    ("L18I", 2.78),
    ("T11C", 2.94),
    ("M12V", 2.06),
    ("P5F", 2.06),
    ("L23H", 3.21),
    ("A20N", 2.55),
    ("P5D", 3.57),
    ("R3F", 1.85),
    ("R17H", 2.73),
    ("L18V", 2.62),
    ("P5M", 1.54),
    ("D10T", 2.66),
    ("D21W", 1.62),
    ("A20G", 2.37),
    ("S19V", 3.62),
    ("A14P", 2.45),
    ("L7R", 2.76),
    ("L23A", 2.96),
    ("R15K", 2.45),
    ("L18S", 2.87),
    ("R3M", 2.53),
    ("M12Q", 2.68),
    ("R17I", 2.81),
    ("S19K", 2.29),
    ("T6K", 2.33),
    ("A14V", 2.53),
    ("P5N", 2),
    ("D10S", 3.77),
]
